target.desc: T1, purified ALK protein (BLitz, Table 20) (Homo sapiens (Human), UniProt Q9UM73 19-1038, limits assumed)
T1 construct: also called purified ALK proteins
test.summary: BLI (BLitz), mAb on Protein A tip, purified ALK in solution
endpoint: Kd (nM)
Unit nM implied. Number only.

binder	unit.tag	Kd
Ab378 (antibody, V domains shown, humanized) VH: EVQLVQSGAEVKKPGTSVKLSCKASGYTFTSYWMHWVRQARGQRLEWIGYIKPSSGYTKYAQKFQERVTLTADKSTSTAYMELSSLRSEDTAVYYCARDYYGSSSWFAYWGQGTLVTVSS VL: EIVMTQSPAFMSVTVGEKVTITCKASQNVGTNVAWYQQKPDQSPKALIYSASYRYSGVPSRFSGSGSGTDFTLTISSLEAEDAATYYCQQYNSYPYMYTFGQGTKLEIK	nM	167

The binder Ab428 (antibody, V domains shown, humanized) VH: EVQLVQSGAEVKKPGASVKLSCKASGYTFTSYWMHWVRQAPGQGLEWIGYIKPSSGYTKYNQKFKDKATLTADKSTSTAYMELRSLRSDDTAVYYCARDYYGSSSWFAYWGQGTLVTVSS VL: EIVMTQSPATLSTSPGERATLSCRASQSVSSNLAWYQQKPGQAPRALIYSASYRYSGVPARFSGSGSGTDFTLTISSVEPEDFAVYYCQQYNSYPYMYTFGQGTKLEIK showed Kd equal to 253

The binder Ab365 (antibody, V domains shown, humanized) VH: EVQLVQSGAEVKKPGTSVKLSCKASGYTFTSSAMQWVKQAPGQGLEWIGYIKPSSGYTKYNQKFKDKATLTADKSTSTAYMELSSLRSEDTAVYYCARDYYGSSSWFAYWGQGTLVTVSS VL: DIVMTQSQAFMSVTVGEKVTITCKASQNVGTNVAWYQQKPDQAPKALIYSASYRYSGVPSRFSGSGSGTDFTLTISSLEAEDAATYYCQQYNSYPYMYTFGQGTKLEIK showed Kd equal to 1490
